Protein target, amino acids: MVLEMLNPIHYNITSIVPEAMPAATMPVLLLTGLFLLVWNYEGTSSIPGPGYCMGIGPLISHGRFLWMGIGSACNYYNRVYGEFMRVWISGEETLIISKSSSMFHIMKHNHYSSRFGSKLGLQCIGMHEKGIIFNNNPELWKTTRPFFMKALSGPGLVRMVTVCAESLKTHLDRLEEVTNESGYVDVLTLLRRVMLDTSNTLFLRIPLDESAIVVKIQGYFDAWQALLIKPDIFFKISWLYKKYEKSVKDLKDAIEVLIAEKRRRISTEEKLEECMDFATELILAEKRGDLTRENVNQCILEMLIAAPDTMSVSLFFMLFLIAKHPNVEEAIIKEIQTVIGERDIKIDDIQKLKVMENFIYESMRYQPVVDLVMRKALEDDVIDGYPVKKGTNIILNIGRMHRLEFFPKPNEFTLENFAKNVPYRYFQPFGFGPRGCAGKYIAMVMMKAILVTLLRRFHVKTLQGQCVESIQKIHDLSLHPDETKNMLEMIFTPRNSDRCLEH
Lab note: cut-off is 50 nM. Strictly less in IC50 is satisfied. Exactly 50 nM or more is not satisfied.

COMPOUND_STRING: N#Cc1ccc(-c2cc(C#N)cc(Cn3cncn3)c2)cc1
ANSWER_LABEL: not satisfied
//
COMPOUND_STRING: N#Cc1cc(Cn2cncn2)ccc1-c1ccc(O)c(Cl)c1
ANSWER_LABEL: not satisfied
//
COMPOUND_STRING: N#Cc1cc(Cn2cncn2)ccc1-c1ccc(OS(N)(=O)=O)c(Cl)c1
ANSWER_LABEL: not satisfied

Could you now consider this next compound?
Exercise: Strictly below 50 nM: is that where IC50 of CC(C)(C#N)c1cc(Cn2cncn2)cc(-c2ccc(O)c(Cl)c2)c1 sits?
Solution: satisfied

* * *

biological target: UniProtKB P11511; test: Inhibition of aromatase in human JEG3 cells at 1 uM by scintillation spectrometry; type: cell-based, JEG-3; settings: human, jeg-3, 1 µM
PROPERTY_MEASURED: inhibition (INH) (%)
Number in %, nothing else.

Below: 3 compounds and their reported inhibition (INH).
COMPOUND_STRING: N#Cc1ccc(-c2ccccc2)cc1Cn1cncn1
PROPERTY_MEASURED: inhibition (INH)
MEASUREMENT: 68.8
--
COMPOUND_STRING: N#Cc1ccc(-c2ccc(O)cc2)cc1Cn1cncn1
PROPERTY_MEASURED: inhibition (INH)
MEASUREMENT: 76.4
--
COMPOUND_STRING: Oc1ccc(-c2cccc(Cn3cncn3)c2)cc1Cl
PROPERTY_MEASURED: inhibition (INH)
MEASUREMENT: 85.3

Exercise: Give inhibition (INH) for the following compound: Oc1ccc(-c2cccc(Cn3cncn3)c2)cc1
Solution: 79

* * *

Entries annotated with measured pIC50
target: Steryl-sulfatase (Homo sapiens); test: Inhibition of steroid sulfatase in human JEG3 cells by scintillation spectrometry; type: cell-based, JEG-3
Sequence (P08842 whole entry): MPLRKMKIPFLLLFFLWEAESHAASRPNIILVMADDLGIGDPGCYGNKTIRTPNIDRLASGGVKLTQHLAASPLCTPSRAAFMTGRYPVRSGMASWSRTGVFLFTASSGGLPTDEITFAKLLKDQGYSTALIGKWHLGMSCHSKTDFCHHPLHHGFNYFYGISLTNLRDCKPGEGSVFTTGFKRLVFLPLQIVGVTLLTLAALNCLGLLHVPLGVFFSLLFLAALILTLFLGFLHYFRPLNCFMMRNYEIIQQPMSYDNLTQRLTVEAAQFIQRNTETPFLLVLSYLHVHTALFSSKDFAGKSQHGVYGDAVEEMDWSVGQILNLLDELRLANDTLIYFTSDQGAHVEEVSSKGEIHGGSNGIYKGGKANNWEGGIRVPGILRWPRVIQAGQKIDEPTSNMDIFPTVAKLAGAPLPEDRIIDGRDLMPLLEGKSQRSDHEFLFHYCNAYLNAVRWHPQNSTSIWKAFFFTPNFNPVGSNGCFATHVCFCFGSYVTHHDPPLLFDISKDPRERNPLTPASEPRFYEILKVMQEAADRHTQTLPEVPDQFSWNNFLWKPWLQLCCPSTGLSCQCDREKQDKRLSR
To interpret pIC50, take it as minus log10 of a concentration measured in moles per litre.

Some solved entries appear below for comparison.
COMPOUND_STRING: N#Cc1cc(Cn2cncn2)ccc1-c1ccc(OS(N)(=O)=O)cc1
pIC50: 7.54

COMPOUND_STRING: N#Cc1ccc(-c2ccc(OS(N)(=O)=O)cc2)cc1Cn1cncn1
pIC50: 6.85

COMPOUND_STRING: N#Cc1ccc(-c2ccc(OS(N)(=O)=O)c(Cl)c2)cc1Cn1cncn1
pIC50: 7.49

COMPOUND_STRING: N#Cc1cc(Cn2cncn2)ccc1-c1ccc(OS(N)(=O)=O)c(Cl)c1
pIC50: 7.54

Exercise: Tell me its pIC50 given N#Cc1ccc(Cn2cncn2)cc1-c1ccc(OS(N)(=O)=O)c(Cl)c1 as the entry.
Solution: 8.26

Exercise: Supply reported pIC50 belonging to this molecule: NS(=O)(=O)Oc1ccc(-c2cccc(Cn3cncn3)c2)cc1
Solution: 5.26

Exercise: Identify measured pIC50 associated with N#Cc1ccc(Cn2cncn2)cc1-c1ccc(OS(N)(=O)=O)cc1
Solution: 7.46

Exercise: Name the recorded pIC50 of the molecule listed here: N#Cc1ccc(-c2ccc(OS(N)(=O)=O)cc2)c(C#N)c1
Solution: 7.79

Exercise: Please indicate pIC50 recorded for N#Cc1cc(Cn2cncn2)cc(-c2ccc(OS(N)(=O)=O)c(Cl)c2)c1
Solution: 5.20

Exercise: Give me measured pIC50, please, for this molecule: NS(=O)(=O)Oc1ccc(-c2cccc(Cn3cncn3)c2)cc1Cl
Solution: 6.80

* * *

biological target: Aromatase (Homo sapiens, UniProt P11511); assay: Inhibition of aromatase in human JEG3 cells at 0.1 uM by scintillation spectrometry; type: cell-based; conditions: JEG-3, human
PROPERTY_MEASURED: inhibition at 0.1 µM (%)
Entry rule: numbers only, all in %.

COMPOUND_STRING: N#Cc1ccc(-c2ccc(O)cc2)cc1Cn1cncn1
TARGET_UNDER_TEST: Aromatase (Homo sapiens, UniProt P11511)
MEASUREMENT: 35.1
//
COMPOUND_STRING: N#Cc1ccc(-c2ccccc2)cc1Cn1cncn1
TARGET_UNDER_TEST: Aromatase (Homo sapiens, UniProt P11511)
MEASUREMENT: 23.9
//
COMPOUND_STRING: Oc1ccc(-c2cccc(Cn3cncn3)c2)cc1Cl
TARGET_UNDER_TEST: Aromatase (Homo sapiens, UniProt P11511)
MEASUREMENT: 36.6

Here's the next entry for you.
Exercise: State, in one line, measured inhibition at 0.1 µM of Oc1ccc(-c2cccc(Cn3cncn3)c2)cc1
Solution: 24.6

* * *

Target chain: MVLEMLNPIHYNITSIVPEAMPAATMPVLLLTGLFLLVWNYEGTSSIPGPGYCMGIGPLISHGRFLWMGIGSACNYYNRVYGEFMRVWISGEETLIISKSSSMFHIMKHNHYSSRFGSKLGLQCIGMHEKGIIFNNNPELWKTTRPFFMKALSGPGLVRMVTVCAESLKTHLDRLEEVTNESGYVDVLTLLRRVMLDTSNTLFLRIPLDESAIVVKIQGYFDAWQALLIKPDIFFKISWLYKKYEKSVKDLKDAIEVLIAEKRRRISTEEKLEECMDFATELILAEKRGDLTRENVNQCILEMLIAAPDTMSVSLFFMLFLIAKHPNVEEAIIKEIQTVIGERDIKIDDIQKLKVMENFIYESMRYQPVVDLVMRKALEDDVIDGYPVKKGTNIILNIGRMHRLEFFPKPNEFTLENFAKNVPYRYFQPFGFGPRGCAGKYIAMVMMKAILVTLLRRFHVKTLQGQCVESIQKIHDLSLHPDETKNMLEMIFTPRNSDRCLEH
Consider the following compounds and their measured IC50 readings.
State just the number; it will be interpreted in nM.

Here are 5 compounds together with their reported answers.
COMPOUND_STRING: N#Cc1cc(Cn2cncn2)cc(-c2ccc(O)cc2)c1
UNIT_ABBREV: nM
IC50: 112

COMPOUND_STRING: N#Cc1ccc(Cn2cncn2)cc1-c1ccc(OS(N)(=O)=O)cc1
UNIT_ABBREV: nM
IC50: 2

COMPOUND_STRING: N#Cc1ccc(Cn2cncn2)cc1-c1ccc(O)cc1
UNIT_ABBREV: nM
IC50: 0.2

COMPOUND_STRING: N#Cc1ccc(Cn2cncn2)c(-c2ccccc2)c1
UNIT_ABBREV: nM
IC50: 1.7

COMPOUND_STRING: N#Cc1cc(Cn2cncn2)ccc1-c1ccc(O)cc1
UNIT_ABBREV: nM
IC50: 920

Exercise: Give the reported value of IC50 for this record: CC(C)(C#N)c1cc(Cn2cncn2)cc(-c2ccc(O)cc2)c1
Solution: 6

Exercise: In one line, give reported IC50 of the entry N#Cc1ccc(-c2ccc(OS(N)(=O)=O)c(Cl)c2)cc1Cn1cncn1 .
Solution: 146

Exercise: Read the entry NS(=O)(=O)Oc1ccc(-c2cccc(Cn3cncn3)c2)cc1 and write its reported IC50.
Solution: 275

Exercise: Tell us which IC50 value is on record for N#Cc1cc(Cn2cncn2)cc(-c2ccc(OS(N)(=O)=O)c(Cl)c2)c1
Solution: 80

Exercise: Read the entry N#Cc1ccc(Cn2cncn2)c(-c2ccc(O)c(Cl)c2)c1 and write its reported IC50.
Solution: 0.8

Exercise: Query IC50 for N#Cc1ccc(-c2ccc(OS(N)(=O)=O)cc2)cc1Cn1cncn1
Solution: 176

Exercise: Tell us which IC50 value is on record for N#Cc1ccc(Cn2cncn2)cc1-c1ccc(Cl)c(OS(N)(=O)=O)c1
Solution: 0.35
